These measurements were taken from patent US11535643B2.

# System: E. coli
# experimentDescription: Broth dilution MIC determination (CLSI) against E. coli strains
# Format: cell-based
# particulars: Escherichia coli, read-out: MIC E. coli NDM-1, NDM-1
property: MIC

| compound | property | readoutValue |
| --- | --- | --- |
| CC[C@H]1OC(=O)[C@H](C)C(=O)[C@H](C)[C@@H](O[C@@H]2OC(CNC(=O)CNC(C)(C)C)CC(N(C)C)C2O)[C@](C)(OC)C[C@@H](C)CN[C@H](C)[C@H]2N(CCCCn3cc(-c4cccc(N)c4)nn3)C(=O)O[C@]12C (stereo partly shown) | MIC | 32 µg/mL |
| CC[C@H]1OC(=O)[C@H](C)C(=O)[C@H](C)[C@@H](O[C@@H]2OC(CNC(=O)c3cnccn3)CC(N(C)C)C2O)[C@](C)(OC)C[C@@H](C)CN[C@H](C)[C@H]2N(CCCCn3cc(-c4cccc(N)c4)nn3)C(=O)O[C@]12C (stereo partly shown) | MIC | > 32 µg/mL |
| CC[C@H]1OC(=O)[C@H](C)C(=O)[C@H](C)[C@@H](O[C@@H]2OC(CN)CC(N(C)C)C2O)[C@](C)(OC)C[C@@H](C)CN[C@H](C)[C@H]2N(CCCCn3cc(-c4cccc(N)c4)nn3)C(=O)O[C@]12C (stereo partly shown) | MIC | 16 µg/mL |
| CC[C@H]1OC(=O)[C@H](C)C(=O)[C@H](C)[C@@H](O[C@@H]2OC(CNC(=O)CN)CC(N(C)C)C2O)[C@](C)(OC)C[C@@H](C)CN[C@H](C)[C@H]2N(CCCCn3cc(-c4cccc(N)c4)nn3)C(=O)O[C@]12C (stereo partly shown) | MIC | > 32 µg/mL |
| CC[C@H]1OC(=O)[C@H](C)C(=O)[C@H](C)[C@@H](O[C@@H]2OC(Cn3cc(-c4ccccn4)nn3)CC(N(C)C)C2O)[C@](C)(OC)C[C@@H](C)CN[C@H](C)[C@H]2N(CCCCn3cc(-c4cccc(N)c4)nn3)C(=O)O[C@]12C (stereo partly shown) | MIC | 32 µg/mL |
| CC[C@H]1OC(=O)[C@H](C)C(=O)[C@H](C)[C@@H](O[C@@H]2OC(CNC(=O)c3ccccc3)CC(N(C)C)C2O)[C@](C)(OC)C[C@@H](C)CN[C@H](C)[C@H]2N(CCCCn3cc(-c4cccc(N)c4)nn3)C(=O)O[C@]12C (stereo partly shown) | MIC | 32 µg/mL |
| CC[C@H]1OC(=O)[C@H](C)C(=O)[C@H](C)[C@@H](O[C@@H]2OC(CNC=N)CC(N(C)C)C2O)[C@](C)(OC)C[C@@H](C)CN[C@H](C)[C@H]2N(CCCCn3cc(-c4cccc(N)c4)nn3)C(=O)O[C@]12C (stereo partly shown) | MIC | > 32 µg/mL |

* * *

As shown below, each of these compounds has a reported MIC value.
# Test system: S. aureus
# experimentDescription: Broth dilution MIC determination (CLSI) against S. aureus strains
# Assay type: cell-based
# particulars: Staphylococcus aureus, ATCC29213, ATCC29213; read-out: MIC S. aureus ATCC29213
property: MIC

| compound | property | readoutValue |
| --- | --- | --- |
| CC[C@H]1OC(=O)[C@H](C)C(=O)[C@H](C)[C@@H](O[C@@H]2OC(Cn3cc(-c4cccc(N)n4)nn3)CC(N(C)C)C2O)[C@](C)(OC)C[C@@H](C)CN[C@H](C)[C@H]2N(CCCCn3cc(-c4cccc(N)c4)nn3)C(=O)O[C@]12C (stereo partly shown) | MIC | 4 µg/mL |
| CC[C@H]1OC(=O)[C@H](C)C(=O)[C@H](C)[C@@H](O[C@@H]2OC(CNC(=N)N)CC(N(C)C)C2O)[C@](C)(OC)C[C@@H](C)CN[C@H](C)[C@H]2N(CCCCn3cc(-c4cccc(N)c4)nn3)C(=O)O[C@]12C (stereo partly shown) | MIC | > 32 µg/mL |
| CC[C@H]1OC(=O)[C@H](C)C(=O)[C@H](C)[C@@H](O[C@@H]2OC(CN)CC(N(C)C)C2O)[C@](C)(OC)C[C@@H](C)CN[C@H](C)[C@H]2N(CCCCn3cc(-c4cccc(N)c4)nn3)C(=O)O[C@]12C (stereo partly shown) | MIC | 8 µg/mL |
| CC[C@H]1OC(=O)[C@H](C)C(=O)[C@H](C)[C@@H](O[C@@H]2OC(CNS(=O)(=O)c3cccnc3)CC(N(C)C)C2O)[C@](C)(OC)C[C@@H](C)CN[C@H](C)[C@H]2N(CCCCn3cc(-c4cccc(N)c4)nn3)C(=O)O[C@]12C (stereo partly shown) | MIC | 16 µg/mL |
